These measurements were taken from PubChem BioAssay (NCI).

- Tested on: IGROV1 ovarian
- Test Details: NCI-60 one-dose screen, 48 h (100 = growth as untreated, 0 = no growth, -100 = all killed)
- Test Parameters: 10 µM unless noted
The panel holds about 83,000 compounds, 20% with a hit somewhere; the sample as a whole holds those more often.
Measured Parameter: growth (%)
Answer in %, number only, no unit symbol.

Record O=C(/C=C/c1cccc(Nc2ccnc3cc(Cl)ccc23)c1)c1ccc(Cl)cc1 . Reported growth: 40.7

Record O=C(O)C1C(c2ccccc2)c2ccccc2C(O)C1CO (stereo not given) . Reported growth: 118

Record CN(C)CCC(=O)Nc1ccc(-n2cc(-c3cccc(NC(=S)Nc4cccc(-c5cn(-c6ccc(NC(=O)CCN(C)C)cc6)nn5)c4)c3)nn2)cc1 . Reported growth: 85.5

Record O=C(N/N=C/c1ccc(Cl)cc1Cl)c1ccccc1Nc1cccc(C(F)(F)F)c1 . Reported growth: 43.8

Record O=C(Nc1nc2ccc(OC(F)(F)F)cc2s1)c1ccc(F)cc1 . Reported growth: 31.1

====

- Tested on: COLO 205 colon
- Test Details: NCI-60 one-dose screen, 48 h (100 = growth as untreated, 0 = no growth, -100 = all killed)
- Test Parameters: 10 µM unless noted
About 83,000 compounds went through this panel and 20% of them were active in at least one assay; those are over-represented in the sample as a whole.
Measured Parameter: growth (%)
Answer in %, number only, no unit symbol.

Record COc1cc(OC)c2c(c1Cl)O[C@]1(C2=O)C(OCc2ccccc2)=CC(=O)C[C@H]1C . Reported growth: -32.6

Record Cc1[nH]ccc2cc3nc4ccccc4c3cc12 . Reported growth: -5.37

Record COc1cc(C(=O)/C=C/c2cccc(Nc3ccnc4cc(Cl)ccc34)c2)cc(OC)c1OC . Reported growth: -36.1

Record C=C(CN1CCc2c([nH]c3ccccc23)C1)c1ccc(C(=O)Nc2ccon2)cc1 . Reported growth: 83.6

Record Cc1onc(-c2ccccc2Cl)c1C(=O)N[C@@H]1C(=O)N2[C@@H]1SC(C)(C)[C@@H]2C(=O)O . Reported growth: 109

Record COc1ccc(/C=C2\CCc3ccccc3C2=O)cc1 . Reported growth: 106

Record Nc1ccccc1C#Cc1ccccc1C#Cc1ccc(OCCCCCCOc2ccc(C#Cc3ccccc3C#Cc3ccccc3N)cc2)cc1 . Reported growth: 96.7

Record N#Cc1c(-c2ccc(F)cc2)n2c(nc1=O)SC(=O)C2=O . Reported growth: 134

Record CCOC(=O)c1cc2oc(/C=C/c3cc(=O)c4cc(Cl)ccc4o3)cc2[nH]1 . Reported growth: 93.9

Record Cc1cccc2nnc(-c3ccccc3)n12 . Reported growth: 118

====

- System: SK-OV-3 ovarian
- Test Details: NCI-60 one-dose screen, 48 h
- Test Parameters: 10 µM unless noted
Compounds without any hit were thinned out: in the full panel of roughly 83,000, 20% have a hit. Active and inactive are the calls of the source. How the source made its calls: active means growth percent below 10; inactive means the rest.
Give your call using only these classes: active, inactive

What did this assay record as the result for Cc1cc2c(cc1C)[n+](Cc1ccc3ccccc3c1)cn2Cc1ccc2ccccc2c1 ?
active

What did this assay record as the result for CC1=C([Se]CC(OC(=O)[C@@H](CSSC(C)(C)C)NC(=O)C(C)(C)C)C(=O)NCCCCCC(=O)OCc2ccccc2)C(=O)c2ccccc2C1=O (some centres not stated) ?
active

What did this assay record as the result for COc1ccc(-c2nnc3c4[nH]cnc4ncn23)c(OC)c1 ?
inactive

What did this assay record as the result for CCCc1n(Cc2ccc3ccccc3c2)cc[n+]1Cc1ccc2ccccc2c1 ?
active

What did this assay record as the result for CN(C)c1ncnc2c1ncn2C1CCCCO1 (configuration not stated) ?
inactive

What did this assay record as the result for COC(=O)C1CCN(S(=O)(=O)c2ccc(-c3ccccc3)cc2)CC1 ?
inactive

What did this assay record as the result for NS(=O)(=O)c1ccc(-n2ncc3c(N/N=C/c4ccccc4)ncnc32)cc1 ?
inactive

What did this assay record as the result for CC12CCC3C(=CCc4cc(O)ccc43)C1CCC2=O (configuration not stated) ?
inactive

What did this assay record as the result for CCN(CC)c1ccc(C(=C2C=CC(=[N+](CC)Cc3cccc(S(=O)(=O)O)c3)C=C2)c2ccc(N(CC)Cc3cccc(S(=O)(=O)O)c3)cc2)cc1 ?
inactive

What did this assay record as the result for N[C@H](CS)C(=O)O ?
inactive

What did this assay record as the result for O=C1c2cc3c(cc2-c2c1c1ccc(Cl)cc1c(=O)n2CCCNCCO)OCO3 ?
active

What did this assay record as the result for COP(=O)(OC)C(c1ccccc1)(c1ccccc1)c1ccccc1 ?
inactive

What did this assay record as the result for O=C(O)C1CCN(S(=O)(=O)c2ccc(-c3ccccc3)cc2)CC1 ?
inactive

What did this assay record as the result for NS(=O)(=O)c1ccc(N2CC(c3nc4ccccc4[nH]3)CC2=O)cc1 (configuration not stated) ?
inactive

What did this assay record as the result for CCN(CC)c1ccc(/C=C/C(=O)c2cccc(NS(C)(=O)=O)c2)cc1 ?
inactive

What did this assay record as the result for Cc1cnc2nc(-c3ccc(N(C)C)cc3)cn2c1 ?
inactive

What did this assay record as the result for OCc1n(Cc2ccc3ccccc3c2)cc[n+]1Cc1ccc2ccccc2c1 ?
inactive

What did this assay record as the result for CCCCCN1C(=O)CCC1=O ?
inactive

What did this assay record as the result for N/C(=N\C(N)=N\c1nc2ccccc2s1)c1ccnc(Cl)c1 ?
inactive

What did this assay record as the result for NC(=O)NC1(C(=O)O)CCCC1 ?
inactive

What did this assay record as the result for Cc1cc(C(=O)Nc2ccc3cc(CN4CCOCC4)ccc3n2)c(C)n1-c1ccccc1 ?
inactive

What did this assay record as the result for O=C(Nc1ccccc1)P(=O)(O)c1ccccc1 ?
inactive

====

- System: MDA-MB-231 breast
- Test Details: NCI-60 one-dose screen, 48 h (100 = growth as untreated, 0 = no growth, -100 = all killed)
- Test Parameters: 10 µM unless noted
About 83,000 compounds went through this panel and 20% of them were active in at least one assay; those are over-represented in the sample as a whole. Calls of active or inactive are those of the source. The calls were made as follows: active = growth percent below 10; inactive = the rest.
Measured Parameter: growth

Record CC1CC=CCC1C1OCC(C)(C)CO1 (centres undefined) . Reported growth: 112% (inactive)

Record C=C1CC[C@@H]2[C@](C)(COC(C)=O)[C@H](OC(C)=O)CC[C@@]2(C)[C@@H]1CC(NCc1ccccc1)C1=CCOC1=O (some centres undefined) . Reported growth: 64.7% (inactive)

Record Nc1c(C(=O)Nc2cccc(Cl)c2)sc2nc3c(cc12)C(O)CCC3 (centres undefined) . Reported growth: 42.6% (inactive)

Record O=C1C2C(C(=O)N1CC[Se][Se]CCN1C(=O)C3C(C1=O)[C@H]1C=C[C@@H]3C1)[C@H]1C=C[C@@H]2C1 (some centres undefined) . Reported growth: -33.8% (active)

Record C/C(=C\CCc1ccoc1)CC/C=C(\C)CCCN1CCSCC1 . Reported growth: 80% (inactive)

Record CNc1nc(NC2CCCC2)nc(Sc2ccc(OC)cc2)n1 . Reported growth: -30.9% [100 µM] (active)

Record C=C1CCC2C3(C)COC(c4ccccc4)OC3CCC2(C)C1C/C=C1/C(=O)OCC1OC(C)=O (centres undefined) . Reported growth: 94.9% (inactive)

Record CCCCCc1c(C)[nH]c(/C=C2\N=C(c3ccc[nH]3)C=C2Oc2ccc(Cl)cc2)c1C . Reported growth: -38.7% [100 µM] (active)

Record COc1ccc(C2CC(c3ccc(Nc4ccnc5cc(Cl)ccc45)cc3)=NN2C(C)=O)cc1 (centres undefined) . Reported growth: 80.9% (inactive)

====

- Test system: NCI-H23 lung
- Test Details: NCI-60 one-dose screen, 48 h
- Test Parameters: 10 µM unless noted
This is part of a sample that, as a whole, favours compounds with a hit. Of some 83,000 tested, about 20% had one in any assay. Calls of active or inactive are those of the source. The calls were made as follows: active = growth percent below 10; inactive = the rest.
Give your call using only these classes: Y (active), N (inactive)

What did this assay record as the result for NC(=O)NC1(C(=O)O)CCCC1 ?
N

What did this assay record as the result for C(=C1c2ccccc2-c2ccccc21)c1ccncc1 ?
N

What did this assay record as the result for CCn1cnc(C[C@H](NC(=O)[C@H](CCCCNC(=O)Nc2cc(C(F)(F)F)cc(C(F)(F)F)c2)NC(=O)Nc2cc(C(F)(F)F)cc(C(F)(F)F)c2)C(=O)OC)c1 ?
Y

What did this assay record as the result for O=C(Nc1ccccc1)c1cc(-n2cnc([N+](=O)[O-])c2)cc(-n2cnc([N+](=O)[O-])c2)n1 ?
N

What did this assay record as the result for Nc1ccc(Oc2c(F)c(F)c(Oc3ccc(N)cc3)c(F)c2F)cc1 ?
N

====

Record form. Attribute: growth. Fill in for each entry.
- Test system: OVCAR-8 ovarian
- Test Details: NCI-60 one-dose screen, 48 h (100 = growth as untreated, 0 = no growth, -100 = all killed)
- Test Parameters: 10 µM unless noted
Compounds without any hit were thinned out: in the full panel of roughly 83,000, 20% have a hit. The source made the active and inactive calls. How the source made its calls: active means growth percent below 10; inactive means the rest.

Query CCCCCN(CCCCC)CCCNc1c2c(nc3ccc(Cl)cc13)CCCC2 on OVCAR-8 ovarian; growth returned: 37.5% (inactive)

Query COc1cccc(-c2nc(-c3ccc(N)cc3)co2)c1 on OVCAR-8 ovarian; growth returned: 85.8% (inactive)

Query O=[N+]([O-])c1ccc(N=Nc2c(Cl)cc(O)cc2Cl)cc1 on OVCAR-8 ovarian; growth returned: 6.5% (active)

Query COc1ccc(NS(=O)(=O)N2CCCCC2)cc1 on OVCAR-8 ovarian; growth returned: 105% (inactive)

Query COC(=O)Nc1ccc2ccc3c(NC(=O)OC)ccc4ccc1c2c43 (tested in a mixture with another compound) on OVCAR-8 ovarian; growth returned: 66.5% (inactive)

Query Cc1nn2c(/C=C3/C(=O)Nc4cc(Cl)ccc43)c(-c3ccccc3)nc2s1 on OVCAR-8 ovarian; growth returned: -25.2% (active)

Query C[C@]12CCC(=O)C=C1CCC1C2[C@@H](O)C[C@@]2(C)C1CC[C@]2(O)C(=O)COC(=O)CCC(=O)O (some centres undefined) on OVCAR-8 ovarian; growth returned: 95.6% (inactive)

Query COc1ccc(C(=O)COc2cccc(/C=C3\COc4ccc5ccccc5c4C3=O)c2)cc1 on OVCAR-8 ovarian; growth returned: 36.9% (inactive)

Query Clc1ccc(C2=NN(c3ccc(Cl)cc3)C(c3cccc(Nc4ccnc5cc(Cl)ccc45)c3)C2)cc1 (centres undefined) on OVCAR-8 ovarian; growth returned: 80.4% (inactive)
